# Experimental Details: Inhibition of beta-hematin formation assessed as equivalents of drug relative to hematin for 50% inhibition at pH 4.5 by BHIA assay
# Format: functional
Form field: IC50 (one value per entry).
Please state the figure in equivalents; there is no need to write the unit.

Look over these answered cases.
[[record]]
compound = "COc1ccc(CN(C)Cc2cccc(CNc3ccnc4cc(Cl)ccc34)c2)cc1"
unit_of_measure = "equivalents"
numeric_value = 0.52

[[record]]
compound = "CN(Cc1ccc(N(C)C)cc1)Cc1ccccc1CNc1ccnc2cc(Cl)ccc12"
unit_of_measure = "equivalents"
numeric_value = 0.48

[[record]]
compound = "CN(Cc1ccccc1)Cc1ccc(CNc2ccnc3cc(Cl)ccc23)cc1"
unit_of_measure = "equivalents"
numeric_value = 0.32

[[record]]
compound = "CN(Cc1ccc(CNc2ccnc3cc(Cl)ccc23)cc1)Cc1ccc(N(C)C)cc1"
unit_of_measure = "equivalents"
numeric_value = 0.4

[[record]]
compound = "CN(Cc1ccc(N(C)C)cc1)Cc1cccc(CNc2ccnc3cc(Cl)ccc23)c1"
unit_of_measure = "equivalents"
numeric_value = 0.5


Qu. For `COc1ccc(CN(C)Cc2ccccc2CNc2ccnc3cc(Cl)ccc23)cc1` , what is its reported IC50?
Ans. 0.46

Qu. Entry `CN(Cc1ccc(Cl)cc1)Cc1ccc(CNc2ccnc3cc(Cl)ccc23)cc1` has what IC50?
Ans. 0.34

* * *

# Tested on: Plasmodium falciparum
# Experimental Details: Antimalarial activity against erythrocyte stages of chloroquine-sensitive Plasmodium falciparum D10 infected in human erythrocytes by lactate dehydrogenase assay
# Type: functional, organism-based
I'd appreciate it if you marked entries 1 when IC50 is lower than 90 nM and -1 when it is not.

Example entries begin here.
[[record]]
chemical_smiles = "CN(Cc1ccc(CNc2ccnc3cc(Cl)ccc23)cc1)Cc1ccc(N(C)C)cc1"
label = 1

[[record]]
chemical_smiles = "CN(Cc1ccccc1)Cc1cccc(CNc2ccnc3cc(Cl)ccc23)c1"
label = 1

[[record]]
chemical_smiles = "CN(Cc1ccccc1)Cc1ccc(CNc2ccnc3cc(Cl)ccc23)cc1"
label = 1


Qu. In the record for `CN(Cc1ccccc1)Cc1ccccc1CNc1ccnc2cc(Cl)ccc12` , is IC50 less than 90 nM?
Ans. -1

* * *

The following compounds are shown together with reported selectivity ratio values.
# Experimental Details: Selectivity index, ratio of IC50 for CHO cells to IC50 for chloroquine-sensitive Plasmodium falciparum D10
# Assay type: toxicity, cell-based
# Recorded Conditions: hamster, read-out: Ratio IC50

[[record]]
chemical_smiles = "CN(Cc1ccccc1)Cc1ccc(CNc2ccnc3cc(Cl)ccc23)cc1"
result = "> 9220"

[[record]]
chemical_smiles = "CN(Cc1ccc(CNc2ccnc3cc(Cl)ccc23)cc1)Cc1ccc(N(C)C)cc1"
result = "> 4790"


From here, focus on the item given below.
Qu. Using the record for `CN(Cc1ccccc1)Cc1cccc(CNc2ccnc3cc(Cl)ccc23)c1` , report its selectivity ratio.
Ans. 1270

* * *

Below is a list of entries, each paired with its recorded pKa value.
# Experimental Details: Dissociation constant, pKa of the compound with basic tertiary amino group by pH titration method
# Format: physicochemical
Answer with a number only.

Worked examples follow.
[[record]]
chemical_smiles = "CN(Cc1ccc(Cl)cc1)Cc1ccc(CNc2ccnc3cc(Cl)ccc23)cc1"
numeric_value = 9.74

[[record]]
chemical_smiles = "COc1ccc(CN(C)Cc2ccccc2CNc2ccnc3cc(Cl)ccc23)cc1"
numeric_value = 9.85

[[record]]
chemical_smiles = "CN(Cc1ccc(Cl)cc1)Cc1ccccc1CNc1ccnc2cc(Cl)ccc12"
numeric_value = 9.6

[[record]]
chemical_smiles = "CN(Cc1ccccc1)Cc1ccccc1CNc1ccnc2cc(Cl)ccc12"
numeric_value = 9.85

[[record]]
chemical_smiles = "CN(Cc1ccc(CNc2ccnc3cc(Cl)ccc23)cc1)Cc1ccc(N(C)C)cc1"
numeric_value = 9.66

[[record]]
chemical_smiles = "COc1ccc(CN(C)Cc2cccc(CNc3ccnc4cc(Cl)ccc34)c2)cc1"
numeric_value = 9.67

[[record]]
chemical_smiles = "CN(Cc1ccc(Cl)cc1)Cc1cccc(CNc2ccnc3cc(Cl)ccc23)c1"
numeric_value = 9.89

[[record]]
chemical_smiles = "CN(Cc1ccc(N(C)C)cc1)Cc1ccccc1CNc1ccnc2cc(Cl)ccc12"
numeric_value = 9.71


Qu. # input molecule: `CN(Cc1ccccc1)Cc1cccc(CNc2ccnc3cc(Cl)ccc23)c1` ; wanted: its pKa
Ans. 9.77

Qu. Given `COc1ccc(CN(C)Cc2ccc(CNc3ccnc4cc(Cl)ccc34)cc2)cc1` , state its recorded pKa.
Ans. 9.7

Qu. Bench note: what pKa did `CN(Cc1ccccc1)Cc1ccc(CNc2ccnc3cc(Cl)ccc23)cc1` show?
Ans. 9.9

Qu. For the molecule `CN(Cc1ccc(N(C)C)cc1)Cc1cccc(CNc2ccnc3cc(Cl)ccc23)c1` , what pKa is on record?
Ans. 9.67
